Molecular target: His-tagged human recombinant kinase full-length Akt1 (Homo sapiens (Human))
Sequence (P31749 whole entry): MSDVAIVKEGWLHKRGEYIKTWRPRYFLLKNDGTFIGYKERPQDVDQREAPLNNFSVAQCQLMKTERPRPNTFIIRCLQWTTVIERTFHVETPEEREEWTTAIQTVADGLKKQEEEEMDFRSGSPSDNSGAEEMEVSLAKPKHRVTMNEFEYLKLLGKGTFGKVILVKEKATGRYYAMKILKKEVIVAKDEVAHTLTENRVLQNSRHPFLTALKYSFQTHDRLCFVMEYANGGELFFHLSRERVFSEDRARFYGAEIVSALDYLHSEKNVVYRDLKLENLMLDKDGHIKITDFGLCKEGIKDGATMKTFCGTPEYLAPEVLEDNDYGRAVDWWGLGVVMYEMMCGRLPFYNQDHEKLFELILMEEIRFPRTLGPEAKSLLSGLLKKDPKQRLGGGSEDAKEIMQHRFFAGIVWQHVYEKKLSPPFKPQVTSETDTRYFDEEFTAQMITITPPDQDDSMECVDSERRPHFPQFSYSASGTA
Assay: Akt1 kinase assay (Akt1 TR-FRET assay, Biological Assay 1.0)
Details: 10 μM ATP, 1 μM biotinylated peptide substrate, 60 min at 22° C.
Text: Biological Assay 1.0: Akt1 Kinase Assay Akt1 inhibitory activity of compounds of the present invention may be quantified employing the Akt1 TR-FRET assay as described in the following paragraphs. His-tagged human recombinant kinase full-length Akt1 expressed in insect cells was purchased form Invitrogen (part number PV 3599). […]
pIC50: −log10 of the molar value.
Observation type: pIC50

Below: 2 molecules and their reported pIC50.
Form field: pIC50 recorded for Cc1cn2cc(-c3ccccc3)c(-c3ccc(CN4CC(c5n[nH]c(-c6ccccn6)n5)C4)cc3)nc2n1 with His-tagged human recombinant kinase full-length Akt1 (Homo sapiens (Human)) (enter value) 8.00

Form field: pIC50 recorded for COC(=O)c1cnn2cc(-c3c(F)cccc3F)c(-c3ccc(CN4CCC(c5n[nH]c(-c6cccc(C)n6)n5)CC4)cc3)nc12 with His-tagged human recombinant kinase full-length Akt1 (Homo sapiens (Human)) (enter value) 8.15

I: CC(C)c1nc2nc(-c3ccc(CN4CC(c5n[nH]c(-c6ccccn6)n5)C4)cc3)c(-c3ccccc3)cn2n1
II: Cc1cccc(-c2nc(C3CN(Cc4ccc(-c5nc6nc(C)c(Br)n6cc5-c5ccccc5)cc4)C3)n[nH]2)n1
Out of I and II , name the one with the higher pIC50. Answer with the label corresponding to your selection. II

###

Molecular target: His-tagged human recombinant kinase full-length Akt2 activated by PDK1 (Homo sapiens (Human))
Assay: Akt2 kinase assay (Akt2 TR-FRET assay, Biological Assay 2.0)
Conditions: 10 μM ATP, 1 μM biotinylated peptide substrate, 60 min at 22° C.
Observation type: IC50 (µM)

Please give the measured IC50 for this compound: COc1nn2cc(-c3c(F)cccc3F)c(-c3ccc(CN4CCC(c5n[nH]c(-c6ccccn6)n5)CC4)cc3)nc2c1CO [Example 63.3] 0.097

Please give the measured IC50 for this compound: Cc1nc2nc(-c3ccc(CN4CCC(n5ncc6c(N)ncnc65)CC4)cc3)c(-c3ccccc3)cn2n1 [Example 22.0] 0.417

Please give the measured IC50 for this compound: CSc1nc2nc(-c3ccc(CN4CCC(c5n[nH]c(-c6ncccn6)n5)CC4)cc3)c(-c3ccccc3)cn2n1 [Example 72.2] 0.222

Please give the measured IC50 for this compound: Cc1cccc(-c2nc(C3CCN(Cc4ccc(-c5nc6nc(C)nn6cc5-c5ccc(F)cc5F)cc4)CC3)n[nH]2)n1 [Example 50.1] 0.108

Please give the measured IC50 for this compound: Cc1nc2nc(-c3ccc(CN4CCC(c5nc6ccc(C#N)cc6[nH]5)CC4)cc3)c(-c3ccccc3)cn2n1 [Example 20.0] 1.01

P: Brc1cnc2nc(-c3ccc(CN4CC(c5n[nH]c(-c6ccccn6)n5)C4)cc3)c(-c3ccccc3)cn12 [Example 55.0]
Q: COC(=O)c1cnn2cc(-c3c(F)cccc3F)c(-c3ccc(CN4CC(c5n[nH]c(-c6ccccn6)n5)C4)cc3)nc12 [Example 28.0]
Record comparison, field IC50: mark the lower of P and Q . Answer with the label corresponding to your selection. P
(P: 0.014 µM, Q: 0.761 µM)

###

Target: His-tagged human recombinant kinase full-length Akt2 activated by PDK1 (Homo sapiens (Human), UniProt P31751)
Sequence (P31751 whole entry): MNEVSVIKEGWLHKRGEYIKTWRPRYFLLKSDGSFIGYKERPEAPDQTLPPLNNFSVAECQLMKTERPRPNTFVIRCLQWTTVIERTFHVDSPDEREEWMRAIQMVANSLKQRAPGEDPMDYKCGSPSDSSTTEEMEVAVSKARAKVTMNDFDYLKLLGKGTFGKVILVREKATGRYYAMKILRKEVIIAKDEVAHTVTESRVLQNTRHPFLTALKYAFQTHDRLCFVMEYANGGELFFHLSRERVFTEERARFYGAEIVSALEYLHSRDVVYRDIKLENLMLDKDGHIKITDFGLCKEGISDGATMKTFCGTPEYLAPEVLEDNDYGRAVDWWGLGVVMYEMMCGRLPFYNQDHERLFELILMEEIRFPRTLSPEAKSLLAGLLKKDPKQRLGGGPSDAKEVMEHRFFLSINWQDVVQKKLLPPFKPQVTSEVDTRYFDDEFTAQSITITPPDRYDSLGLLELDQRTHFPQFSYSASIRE
Experiment: Akt2 kinase assay (Akt2 TR-FRET assay, Biological Assay 2.0)
Conditions: 10 μM ATP, 1 μM biotinylated peptide substrate, 60 min at 22° C.
pIC50: −log10 of the molar value.
Observation type: pIC50

Please give the measured pIC50 for this compound: COc1nn2cc(-c3c(F)cccc3F)c(-c3ccc(CN4CCC(c5n[nH]c(-c6cccc(C)n6)n5)CC4)cc3)nc2c1CO 6.97

P: COC(=O)c1cnn2cc(-c3c(F)cccc3F)c(-c3ccc(CN4CC(c5n[nH]c(-c6cccc(C)n6)n5)C4)cc3)nc12
Q: CNc1c(-c2ccccc2)c(-c2ccc(CN3CC(c4n[nH]c(-c5ccccn5)n4)C3)cc2)nc2nc(C)cn12
Out of P and Q , name the one with the higher pIC50. Answer with the label corresponding to your selection. Q
(Q: 7.26, P: 6.94)
